tested on: 425362-245-T-J1 tumor spheroids, viability % test/control; assay: Anticancer human tumor 425362-245-T-J1 patient-derived melanoma cell line growth inhibition; details: second compound 0.00949 µM; first compound 10 µM; stronger effect = lower value; spheroids with HUVEC and MSC;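 also: spheroids exposed to agents for 7 days; 100% = DMSO vehicle control viability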
Listed compounds paired with reported viability, T/C
Reply numerically in %, unit not repeated.

Query: Requested field: viability, T/C. Item: COc1ccc([C@@H](O)c2cc(-c3ncnc4cc(N5CCOCC5)ccc34)c(F)cc2Cl)nn1 + CC[C@@]1(O)C(=O)OCc2c1cc1n(c2=O)Cc2cc3c(CN(C)C)c(O)ccc3nc2-1
Result: 14.9

Continuing:
Query: Name the recorded viability, T/C for Cc1cc(C)c(CNC(=O)c2cc(-c3ccc(CN4CCOCC4)cc3)cc3c2cnn3C2CCCC2)c(=O)[nH]1 + CC[C@@]1(O)C(=O)OCc2c1cc1n(c2=O)Cc2cc3c(CN(C)C)c(O)ccc3nc2-1 .
Result: 16.8

Query: I am curious: what viability, T/C value has been reported for COc1cc(C)[nH]c(=O)c1CN1CCc2c(Cl)cc(C(OC)C3COC3)c(Cl)c2C1=O (stereo not drawn) + CC[C@@]1(O)C(=O)OCc2c1cc1n(c2=O)Cc2cc3c(CN(C)C)c(O)ccc3nc2-1 ?
Result: 59.5
